Target: kinases (kinome) (Homo sapiens)
Construct: determined in kinobeads assays with mass spectrometry detection of kinases as described previously; endogenous in cells
Assay: kinobeads assay with mass spectrometry detection of kinases (kinase selectivity profile)
Conditions: ATR (Atypical), IPI00412298; 0.1 μM ranges
Each record here notes measured IC50.

C[C@H]1COCCN1c1nc(-c2ccc(NC(=O)NC3CC3)cc2)cc(-c2cccnc2S(C)(=O)=O)n1	> 10 µM
C[C@H]1COCCN1c1nc(-c2ccc(NC(=O)NC3CC3)cc2)cc(-c2cc(F)ccc2S(C)(=O)=O)n1	1.1 to 1.2 µM
C[C@H]1COCCN1c1nc(-c2ccc(NC(=O)N[C@H]3CCC[C@@H]3O)cc2)cc(-c2cc(F)ccc2S(C)(=O)=O)n1	> 10 µM

Fill in the blank: the reported IC50 of C[C@H]1COCCN1c1cc(-c2ccccn2)nc(-c2ccc(NC(=O)NCCO)cc2)n1 is ____.
> 10 µM

And the next one, C[C@H]1COCCN1c1nc(-c2ccc(NC(=O)NC3CC3)cc2)cc(-c2ccccc2S(C)(=O)=O)n1 ?
> 10 µM

====

Each record here notes measured IC50.
Molecular target: mTOR (Homo sapiens)
Construct: endogenous in cells; host or cells: Jurkat cells (ATCC TIB-152, clone E6-1), lysate
Assay: mTOR kinobeads assay (dot blot detection)
Format: binding
Settings: Table 4, read-out: Inhibition values (IC50) mTOR

C[C@H]1COCCN1c1cc(-c2cc(F)ccc2S(C)(=O)=O)nc(-c2ccc(NC(=O)NC3CC3)cc2F)n1	1000 to 10000 nM
C[C@H]1COCCN1c1ccnc(-c2ccc(NC(=O)NCCO)cc2)n1	100 to 1000 nM
NC(=O)Nc1ccc(-c2nccc(N3CCOCC3)n2)cc1	1000 to 10000 nM
CNC(=O)Nc1ccc(-c2nccc(N3CCOCC3)n2)cc1	1000 to 10000 nM
CCNC(=O)Nc1ccc(-c2cc(-c3ccccc3S(=O)(=O)N(C)C)nc(N3CCOC[C@@H]3C)n2)cc1	100 to 1000 nM
C[C@H]1COCCN1c1nc(-c2ccc(NC(=O)NCC(F)F)cc2)cc(-c2cc(F)ccc2S(C)(=O)=O)n1	100 to 1000 nM

Fill in the blank: the reported IC50 of CCNC(=O)Nc1ccc(-c2cc(-c3ccccc3C(=O)O)nc(N3CCOC[C@@H]3C)n2)cc1 is ____.
1000 to 10000 nM

And the next one, CCNC(=O)Nc1ccc(-c2cc(-c3ccncc3)nc(N3CCOC[C@@H]3C)n2)cc1 ?
1000 to 10000 nM

====

Target: kinases (kinome) (Homo sapiens, UniProt Q7KZI7)
Construct: determined in kinobeads assays with mass spectrometry detection of kinases as described previously; endogenous in cells
Sequence (Q7KZI7 whole entry): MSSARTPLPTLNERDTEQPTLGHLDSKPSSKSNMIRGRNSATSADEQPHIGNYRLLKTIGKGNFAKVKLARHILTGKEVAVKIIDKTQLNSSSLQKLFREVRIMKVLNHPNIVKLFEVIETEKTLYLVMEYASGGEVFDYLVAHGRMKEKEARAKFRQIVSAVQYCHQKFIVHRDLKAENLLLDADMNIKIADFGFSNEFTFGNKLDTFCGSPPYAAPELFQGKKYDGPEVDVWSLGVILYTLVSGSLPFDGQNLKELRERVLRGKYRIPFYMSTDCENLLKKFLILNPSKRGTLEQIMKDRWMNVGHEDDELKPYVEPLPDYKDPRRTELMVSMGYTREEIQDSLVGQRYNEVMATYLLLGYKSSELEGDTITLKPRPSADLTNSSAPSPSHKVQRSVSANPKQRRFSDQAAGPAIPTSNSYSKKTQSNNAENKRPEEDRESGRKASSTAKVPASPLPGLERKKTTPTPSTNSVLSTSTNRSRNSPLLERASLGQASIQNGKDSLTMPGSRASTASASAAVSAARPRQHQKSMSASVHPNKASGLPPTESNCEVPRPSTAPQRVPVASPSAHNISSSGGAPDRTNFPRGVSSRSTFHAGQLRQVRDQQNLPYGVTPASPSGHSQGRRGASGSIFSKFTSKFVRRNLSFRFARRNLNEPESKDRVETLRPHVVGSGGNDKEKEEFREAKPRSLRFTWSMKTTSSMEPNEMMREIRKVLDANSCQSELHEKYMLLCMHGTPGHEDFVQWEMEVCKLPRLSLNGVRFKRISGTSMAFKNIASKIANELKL
Experiment: kinobeads assay with mass spectrometry detection of kinases (kinase selectivity profile)
Conditions: MARK2 (CAMK), IPI00555838
pIC50: −log10 of the molar value.
ENDPOINT LABEL: pIC50

CCNC(=O)Nc1ccc(-c2cc(-c3ccccc3C#N)nc(N3CCOC[C@@H]3C)n2)cc1	< 5.00
C[C@H]1COCCN1c1nc(-c2ccc(NC(=O)NC3CC3)cc2)cc(-c2cccnc2S(C)(=O)=O)n1	< 5.00

Attention now turns to another entry.
Fill in the blank: the reported pIC50 of C[C@H]1COCCN1c1nc(-c2ccc(NC(=O)NC3CC3)cc2)cc(-c2ccccc2S(C)(=O)=O)n1 is ____.
< 5.00

Provenance of the data: patent US9249129B2
